# experimental system: recombinant human FLAP protein (Homo sapiens, UniProt P20292)
# Sequence (P20292 whole entry): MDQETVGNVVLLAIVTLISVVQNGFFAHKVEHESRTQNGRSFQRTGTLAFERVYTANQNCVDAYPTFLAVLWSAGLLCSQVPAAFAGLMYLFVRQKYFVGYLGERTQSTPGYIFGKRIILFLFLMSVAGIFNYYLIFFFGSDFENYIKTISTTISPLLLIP
# assay name: FLAP binding assay (SPA, displacement of [125I]L-691,831)
# condition details: membranes of sf9 cells expressing human FLAP, [125I]L-691,831 probe; read-out: hFLAP binding IC50
# Protocol: Compounds are assessed for the ability to bind to FLAP in a binding assay that measures compound-specific displacement of an iodinated (^125I) FLAP inhibitor via a Scintillation Proximity Assay format (adapted from S. Charleson et al., Mol. Pharmacol., 1992, 41, 873-879). Cell pellets produced from sf9 insect cells expressing recombinant human FLAP protein are resuspended in buffer A [15 mM Tris-HCl (pH 7.5), 2 mM MgCl2, 0.3 mM EDTA, 1 mM PMSF]. […]
Below, each entry is listed with its recorded IC50.
A complete answer gives the number followed by the unit.

Recorded results for 2 compounds are shown here.
{"columns": ["compound", "IC50"],
 "data": [
  ["Nc1ncc(-c2ccc(C3(C(=O)Nc4ccc(O)nc4)CCC3)cc2)cn1 [Example 221]", "290 nM"],
  ["Cc1nc(-c2ccc(NC(=O)C(C)(c3ccc(-c4cnc(N)nc4)cc3)C(C)C)nc2)cs1 (centres unmarked) [Example 119]", "3.95 nM"]
]}

INPUT: Please give the measured IC50 for this compound: Nc1ncc(-c2ccc(C3(C(=O)Nc4cc(-c5ccccc5)no4)CCOCC3)cc2)cn1 [Example 37]
OUTPUT: 35 nM

INPUT: // returns reported IC50 for input Cc1nccn1-c1ccc(NC(=O)C2(c3ccc(-c4cnc(N)nc4)cc3)CCOCC2)cc1 [Example 224]
OUTPUT: 30 nM

INPUT: Dear colleague, I am looking for the recorded IC50 of the following compound: Cc1ccnc(NC(=O)C2(c3ccc(-c4cnc(N)nc4)cc3)CCOCC2)c1 [Example 140]
OUTPUT: 230 nM

INPUT: Need IC50, item Cc1nc(-c2ccc(NC(=O)C(c3ccc(-c4cnc(N)nc4)cc3)C(C)(C)C)nc2)cs1 (centres unmarked) [Example 90]
OUTPUT: 31.5 nM

INPUT: # get_value(readout='IC50', item= Nc1ncc(-c2ccc(C3(C(=O)Nc4ccc(Cl)c(Cl)c4)CCOCC3)cc2)cn1 [Example 13] )
OUTPUT: 16.7 nM

INPUT: // query IC50 value for entry Nc1ncc(-c2ccc(C3(C(=O)Nc4ccc(N5CCOCC5)c(Cl)c4)CCOCC3)cc2)cn1 [Example 72]
OUTPUT: 28.3 nM
